# Test system: MS2 coat protein
# experimental protocol: apparent Kd, MS2 coat protein; higher = weaker binding; RNA-MaP array; tryptophan 2.4 mM where present
# condition context: ligand present: tryptophan; designed as: OFF switch for tryptophan
The following sequences are listed with their measured apparent Kd values.
# output: number + unit

Some entries whose results are on file:
{"chain": "UUCACAUGAUCUGAAUAUACAGAAAAGAAACGAGGACCGGUACGGCCGCCACUCGUGCCGGAAACAUGAGGAUCACCCAUGUGUU", "apparent Kd": "22 nM"}
{"chain": "CGCCACAUGAGGAUCACCCAUGUCUUGGCGCGAGGACCGGUACGGCCGCCACUCGCGUUUCAGUGAGCGCAUGCGUCCUUGGUAU", "apparent Kd": "26.1 nM"}
{"chain": "GAUAUGGAAACAUGUCAGAUCCUUACCGGUCGAGGACCGGUACGGCCGCCACUCGGAAAUAUUGUACAUGAGGAUCACCCAUGUA", "apparent Kd": "14.5 nM"}

Query: Give recorded apparent Kd. UGAUACCAGUCGGCCGCCACUACAUGAGGAUCACCCAUGUAUCCUCAACUGCUAGAUACUAGCAGUAGGACCGGGACUGGUAUCU
Reply: 1150 nM

Query: Give recorded apparent Kd. GGAGCUACGUCGGCCGCCACUAGCGGAUAUUACGUGUACAUGAGGAUCACCCAUGUAAUACGGUUUAGGACCGGGACGUAGCUCC
Reply: 16.5 nM

Query: Give recorded apparent Kd. AAUCGUAAGGCGGCCGCCACUACACAUGAGGAUCACCCAUGUCUCGCAGGCUUGCGUUGGGAUAGUAGGACCGGGCCAGUAAUAA
Reply: 21.8 nM

Query: Give recorded apparent Kd. GGAUAGGACACGGCCGCCACUGCCUAGGAUACUAGCAACAUUUGGGUACAUGAGGAUCACCCAUGUAGGACCGGGUGUCCUAUCG
Reply: 53.9 nM

* * *

# System: MS2 coat protein
# experimental protocol: apparent Kd, MS2 coat protein; higher = weaker binding; RNA-MaP array
# condition context: ligand present: flavin mononucleotide; designed as: OFF switch for flavin mononucleotide
Respond with 1.0 for apparent Kd values of 20 nM and above, 0.0 for values below.

{"chain": "GACCGGUAUCCAGGAUAUGCAAUUAUUUACAUGAGGAUCACCCAUGUCGCAAGAGUAGGGGUGUAGCAGAAGGGGACAACAGCA", "answer label": 1.0}
{"chain": "GUACAGGAAGGAUAUACCAGGUAAGUUAAGUUUUCACAUUGACAUGAGGAUCACCCAUGUAGAAGGUCCCUAUA", "answer label": 1.0}
{"chain": "AGCGACAUGAGGAUCACCCAUGUGUUAGCUAAGCCUCUCAGCAGAAGGGAUGGUGUCCCAGAUGAUCAGGAUAUGCUGUUUUUG", "answer label": 1.0}

From here, focus on the item given below.
Query: For this sequence, is measured apparent Kd 20 nM or higher? CGGACCUGAGAGAAGGGCAGCCGACAUGAGGAUCACCCAUGUAAUCGAGGACCAUCCUCAUUUUUGCAGGAUAUCUAUUGUUAU
Reply: 1.0

* * *

# System: MS2 coat protein
# experimental protocol: apparent Kd, MS2 coat protein; higher = weaker binding; RNA-MaP array; theophylline 2 mM where present
# condition context: designed as: ON switch for theophylline; no ligand
parameter measured: apparent Kd (nM)
Just the number please, in nM, no unit attached.

{"chain": "UGCACCAUAAUCAUGUUGGUGCUAGGUGAUACCAGCAUCGAAAGAUGCCCUUGGCAGCACCAACAUGAGGAUCACCCAUGUAAUA", "target entity": "MS2 coat protein", "unit symbol": "nM", "number": 130}
{"chain": "GGUGGGACUUGUGAUACCAGCCCAGUUCUAAUCGAACUGCACAUGAGGAUCACCCAUGUCGGCCCUUGGCAGCAUGAGUAUUUAU", "target entity": "MS2 coat protein", "unit symbol": "nM", "number": 322}
{"chain": "AUAAAUAUAACCGAUACCAGCCUUAUACAUGAGGAUCACCCAUGUUAUGCUUCCUUUUUUGGCCCUUGGCAGCGGAAAUGGGUAA", "target entity": "MS2 coat protein", "unit symbol": "nM", "number": 81.7}
{"chain": "CUCGGUUGAUCCUAGCUGCCGAGAGGUGAUACCAGCAUCGAAAGAUGCCCUUGGCAGCACCAACAUGAGGAUCACCCAUGUAAUA", "target entity": "MS2 coat protein", "unit symbol": "nM", "number": 55.1}

Query: Fill in apparent Kd for UGUAACAUGAGGAUCACCCAUGUGAGUGAUACCAGAUAAGUAGUAGUCCCUUGGCAGCAUAUUGGGCGAGUGUAUAGUCUAUGCG tested with MS2 coat protein.
Reply: 146

Query: Fill in apparent Kd for UUACAUGAGGAUCACCCAUGUCAUAAUGAUACCAGAUAGUUAAUGAUCCCUUGGCAGCAUAAUACCUAGACAUUUAAGUCAUAGG tested with MS2 coat protein.
Reply: 83.1

Query: Fill in apparent Kd for GGUGAUCCGUGCUGCCGGAUCAUCGGUGAUACCAGCAUCGAAAGAUGCCCUUGGCAGCACCAACAUGAGGAUCACCCAUGUAAUA tested with MS2 coat protein.
Reply: 206

Query: Fill in apparent Kd for ACGACAUGAGGAUCACCCAUGUAAGGUGAUACCAGACGAAGUAAUGUCCCUUGGCAGCACACGCAUAGUUGCGAUUAUUGUACGA tested with MS2 coat protein.
Reply: 533

Query: Fill in apparent Kd for GGUGGCGUGACGGAUACCAGCCACCGCCGCAAGGCCACAUGAGGAUCACCCAUGUUGGGUGGCCCUUGGCAGCUGUCGUGCGGCG tested with MS2 coat protein.
Reply: 157

Query: Fill in apparent Kd for CGAUCUUUCGAAAGAAGGAUCGAGUCUGAUACCAGAGACGAAAGUCUCCCUUGGCAGCAGUGCCAACAUGAGGAUCACCCAUGUU tested with MS2 coat protein.
Reply: 15.8

Query: Fill in apparent Kd for UUUGAGAUAACAGAUACCAGCGUGUUAUAAAACAUGAGGAUCACCCAUGUAGUGAUCAAGCGCCCUUGGCAGCUGGUAUUUUAGG tested with MS2 coat protein.
Reply: 95.2

Query: Fill in apparent Kd for CUCUGAGUGAGUAAUCACUCAGAGGCGGAUACCAGCGAGGUCCAUCGCCCUUGGCAGCCGAACAUGAGGAUCACCCAUGUCGGUA tested with MS2 coat protein.
Reply: 10.7

Query: Fill in apparent Kd for CAUACUUUAGUAUGACGUGUGGGCAGUGAUACCAGAUACGAAAGUAUCCCUUGGCAGCACAACAUGAGGAUCACCCAUGUAAUUA tested with MS2 coat protein.
Reply: 20.5

Query: Fill in apparent Kd for AUCGUACCUGAGGAUACCAGCAUGUGAUCAUAACAUGAGGAUCACCCAUGUAAUCAGUGAUGCCCUUGGCAGCUUGAUCGGUACA tested with MS2 coat protein.
Reply: 80.1

* * *

# System: MS2 coat protein
# experimental protocol: apparent Kd, MS2 coat protein; higher = weaker binding; RNA-MaP array; tryptophan 2.4 mM where present
# condition context: designed as: OFF switch for tryptophan; no ligand
The following sequences are listed with their measured apparent Kd values.
Just the number please, in nM, no unit attached.

Query: Give recorded apparent Kd. ACAUGUUGGUGGUAUCUACGAAGGCGGAAACGAGGACCGGUACGGCCGCCACUCGGCGACAUGAGGAUCACCCAUGUGGUUAAAA
Reply: 52.6

Query: Give recorded apparent Kd. CUGCCUGCCUCACAUGAGGAUCACCCAUGUCGAGGACCGGUACGGCCGCCACUCGUCGUCGGUAAUACAGGCAUUGAAUAAUAUA
Reply: 10.3

Query: Give recorded apparent Kd. UUGUGGCGCUCGGCCGCCACUCCGACAUGAGGAUCACCCAUGUUCUACAUGAGGAUCACCCAUGUGAGGACCGGGAGACACUUCC
Reply: 104

Query: Give recorded apparent Kd. ACCUGCGUUUGUUUCUUUCUGACGCAGGUUCGAGGACCGGUACGGCCGCCACUCGGACAUGAGGAUCACCCAUGUUUGAAAUGGG
Reply: 253

* * *

# Tested on: MS2 coat protein
# experimental protocol: apparent Kd, MS2 coat protein; higher = weaker binding; RNA-MaP array; FMN 200 µM where present
# condition context: ligand present: flavin mononucleotide; designed as: OFF switch for flavin mononucleotide
parameter measured: apparent Kd (nM)
Just the number please, in nM, no unit attached.

Some entries whose results are on file:
{"chain": "AAACAUGUCCGAGGAUAUCUGGAAACAUUUCCAAGAGAAGGCGGACAUGAGGAUCACCCAUGUCUCUCCUCAUCACAUCCAAGU", "target entity": "MS2 coat protein", "unit symbol": "nM", "apparent Kd": 79.3}
{"chain": "AUUGACUGAGGAUAUUGUACUGCUGACAUGAGGAUCACCCAUGUAUGCUAACUCGGCCGUCGAGAAGGCAGUCAUG", "target entity": "MS2 coat protein", "unit symbol": "nM", "apparent Kd": 17.3}
{"chain": "CUAAAUCAUGUAGGAUAUGCGUGGCGAAGCUAUGCAGAAGGACAUGAGGAUCACCCAUGUCAAAAUUUCUGCGUACAGACGGAA", "target entity": "MS2 coat protein", "unit symbol": "nM", "apparent Kd": 30.7}

Query: Give recorded apparent Kd. CCACCAAUCGAGAAGGGCCCAUGUGCUACAUCGGCAGGAUAUCGACAUGAGGAUCACCCAUGUUGGCGAUCCUUUUUGGCGGAC
Reply: 35.9
